testSystem: Jak2 (UniProt O60674)
Sequence (O60674 whole entry, looked up): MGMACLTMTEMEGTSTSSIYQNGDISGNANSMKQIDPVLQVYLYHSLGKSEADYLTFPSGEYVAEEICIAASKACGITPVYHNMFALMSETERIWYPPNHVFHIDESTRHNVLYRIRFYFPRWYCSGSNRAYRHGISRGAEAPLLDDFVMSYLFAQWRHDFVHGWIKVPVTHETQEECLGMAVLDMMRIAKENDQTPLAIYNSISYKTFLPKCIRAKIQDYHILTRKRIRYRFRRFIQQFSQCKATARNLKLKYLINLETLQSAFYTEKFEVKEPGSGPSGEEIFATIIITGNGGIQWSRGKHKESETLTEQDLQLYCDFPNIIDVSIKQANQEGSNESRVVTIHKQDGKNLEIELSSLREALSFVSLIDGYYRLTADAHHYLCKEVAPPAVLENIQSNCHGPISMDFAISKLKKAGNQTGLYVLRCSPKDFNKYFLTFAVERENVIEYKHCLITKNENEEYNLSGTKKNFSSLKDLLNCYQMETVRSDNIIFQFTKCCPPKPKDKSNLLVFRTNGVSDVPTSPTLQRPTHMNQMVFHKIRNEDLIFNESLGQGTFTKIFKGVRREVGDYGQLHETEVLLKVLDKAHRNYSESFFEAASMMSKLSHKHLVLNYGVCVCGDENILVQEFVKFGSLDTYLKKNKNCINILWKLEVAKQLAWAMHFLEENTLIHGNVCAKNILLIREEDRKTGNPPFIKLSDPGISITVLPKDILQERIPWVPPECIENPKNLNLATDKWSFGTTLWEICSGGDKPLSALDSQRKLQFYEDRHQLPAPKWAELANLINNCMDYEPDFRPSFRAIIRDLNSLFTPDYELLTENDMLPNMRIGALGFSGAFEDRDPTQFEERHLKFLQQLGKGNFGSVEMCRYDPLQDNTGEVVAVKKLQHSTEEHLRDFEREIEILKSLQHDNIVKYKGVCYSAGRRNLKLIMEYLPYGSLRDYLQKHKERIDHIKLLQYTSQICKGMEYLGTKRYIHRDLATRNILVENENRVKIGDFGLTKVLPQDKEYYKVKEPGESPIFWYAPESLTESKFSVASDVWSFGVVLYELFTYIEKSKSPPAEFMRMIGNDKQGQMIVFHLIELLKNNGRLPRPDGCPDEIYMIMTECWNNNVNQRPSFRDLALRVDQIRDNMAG
measurementProtocol: phosphorylation enrichment, bacterial display (enrichment ratio); higher = better substrate or ligand; peptides without Tyr show the background;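 further: 11-residue human phosphosite peptides and single-mutation variants displayed on the E. coli surface, counted by deep sequencing, each peptide's frequency after selection divided by its frequency in the unselected input library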;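 further: frequency after pTyr selection over input frequency; kinase dosed for 20-30% of maximal phosphorylation in three min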
Consider the following sequences and their measured phosphorylation enrichment readings.
Write no unit; give the number alone.

In: I am curious: what phosphorylation enrichment value has been reported for SDVCMYRKNTF [SYNE2_Y570_I574T_YF] ?
Out: 0.726

In: I am curious: what phosphorylation enrichment value has been reported for TYEYKYPEGSS [TGM4_Y440] ?
Out: 1.05

###

Test system: c-Abl (mouse)
measurementProtocol: phosphorylation enrichment, bacterial display (enrichment ratio); higher = better substrate or ligand; peptides without Tyr show the background
phosphorylation enrichment vs 0.7: at or above is satisfied, below is not satisfied.

The following sequences have reported results that may help.
In: Is it the case that VLALWYYYLTH [ZDHHC23_Y127] has phosphorylation enrichment reaching or exceeding 0.7?
Out: satisfied

In: Is it the case that MDDKEYYSVHN [MET_Y1234_Y1230D] has phosphorylation enrichment reaching or exceeding 0.7?
Out: satisfied

In: Is it the case that FRIGPYQPNVP [MATR3_Y784_YF] has phosphorylation enrichment reaching or exceeding 0.7?
Out: not satisfied

From here, focus on the item given below.
In: Is it the case that TIQDAYMHITS [ADCY10_Y318_A313T] has phosphorylation enrichment reaching or exceeding 0.7?
Out: not satisfied
